FYI, the data here is from paper PMC7015794.

# Tested target: (1,3)-β-D-glucan synthase (GS), catalytic subunit Fks1p (Saccharomyces cerevisiae, UniProt P38631)
# Sequence (P38631 whole entry): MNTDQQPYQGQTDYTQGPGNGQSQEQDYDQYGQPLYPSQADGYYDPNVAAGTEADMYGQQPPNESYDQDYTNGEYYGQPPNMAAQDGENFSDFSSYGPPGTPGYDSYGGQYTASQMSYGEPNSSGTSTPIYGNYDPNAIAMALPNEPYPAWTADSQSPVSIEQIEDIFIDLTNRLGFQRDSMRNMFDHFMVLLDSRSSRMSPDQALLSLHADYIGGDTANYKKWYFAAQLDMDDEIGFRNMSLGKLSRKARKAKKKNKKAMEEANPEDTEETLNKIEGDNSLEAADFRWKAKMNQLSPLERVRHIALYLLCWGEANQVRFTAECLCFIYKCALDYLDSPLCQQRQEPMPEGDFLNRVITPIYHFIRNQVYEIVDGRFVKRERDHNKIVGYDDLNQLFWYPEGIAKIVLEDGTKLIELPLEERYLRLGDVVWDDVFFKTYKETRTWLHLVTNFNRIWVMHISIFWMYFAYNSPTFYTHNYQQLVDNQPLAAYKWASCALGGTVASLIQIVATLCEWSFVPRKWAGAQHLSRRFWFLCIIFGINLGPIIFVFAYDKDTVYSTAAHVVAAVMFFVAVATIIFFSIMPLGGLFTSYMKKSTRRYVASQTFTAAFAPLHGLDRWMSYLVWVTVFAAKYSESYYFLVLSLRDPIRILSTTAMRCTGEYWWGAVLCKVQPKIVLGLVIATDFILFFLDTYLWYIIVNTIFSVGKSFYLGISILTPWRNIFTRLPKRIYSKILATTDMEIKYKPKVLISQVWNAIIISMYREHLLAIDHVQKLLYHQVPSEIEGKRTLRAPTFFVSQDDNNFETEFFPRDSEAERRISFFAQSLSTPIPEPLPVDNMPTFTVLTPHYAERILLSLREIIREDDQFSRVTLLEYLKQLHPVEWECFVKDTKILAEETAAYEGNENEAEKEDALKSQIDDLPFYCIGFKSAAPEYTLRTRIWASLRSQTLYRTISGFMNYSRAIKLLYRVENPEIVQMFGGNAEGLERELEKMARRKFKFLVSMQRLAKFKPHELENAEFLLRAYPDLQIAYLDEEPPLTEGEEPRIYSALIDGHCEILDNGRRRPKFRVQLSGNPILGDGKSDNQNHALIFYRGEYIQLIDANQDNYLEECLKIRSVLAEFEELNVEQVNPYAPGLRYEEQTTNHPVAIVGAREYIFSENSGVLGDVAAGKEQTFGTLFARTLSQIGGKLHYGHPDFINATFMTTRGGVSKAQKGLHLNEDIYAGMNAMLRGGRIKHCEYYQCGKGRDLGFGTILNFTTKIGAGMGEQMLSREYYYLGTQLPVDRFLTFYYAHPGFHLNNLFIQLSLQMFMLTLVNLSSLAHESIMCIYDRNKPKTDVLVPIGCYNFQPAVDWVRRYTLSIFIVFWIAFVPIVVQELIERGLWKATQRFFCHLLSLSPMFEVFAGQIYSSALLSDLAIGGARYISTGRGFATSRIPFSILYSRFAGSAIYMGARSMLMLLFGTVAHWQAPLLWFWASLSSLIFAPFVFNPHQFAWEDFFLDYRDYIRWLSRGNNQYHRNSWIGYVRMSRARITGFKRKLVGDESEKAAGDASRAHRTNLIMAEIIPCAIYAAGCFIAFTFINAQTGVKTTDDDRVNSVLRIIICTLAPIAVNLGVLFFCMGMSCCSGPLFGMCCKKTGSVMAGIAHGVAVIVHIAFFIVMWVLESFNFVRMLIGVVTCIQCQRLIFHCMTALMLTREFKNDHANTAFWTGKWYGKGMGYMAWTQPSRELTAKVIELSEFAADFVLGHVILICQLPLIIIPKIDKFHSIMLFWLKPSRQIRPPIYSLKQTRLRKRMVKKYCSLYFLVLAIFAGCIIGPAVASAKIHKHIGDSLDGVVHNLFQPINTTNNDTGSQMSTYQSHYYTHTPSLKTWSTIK
# Sequence (P06780 2-206, further chain): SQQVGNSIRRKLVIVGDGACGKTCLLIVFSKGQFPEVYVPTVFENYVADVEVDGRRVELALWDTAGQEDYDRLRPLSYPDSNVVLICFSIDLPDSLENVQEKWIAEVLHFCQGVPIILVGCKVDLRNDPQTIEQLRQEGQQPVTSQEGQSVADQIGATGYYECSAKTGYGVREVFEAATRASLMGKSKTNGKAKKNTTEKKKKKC
# Experimental details: GS activity assay with […] UDP-Glc
# Format: biochemical
Value type: pIC50
Keep in mind that pIC50 stands for -log10 of concentration in molar terms.

-- ask # return recorded pIC50 for input O=c1ccn([C@@H]2O[C@H](COP(=O)(O)OP(=O)(O)O[C@H]3O[C@H](CO)[C@@H](O)[C@H](F)[C@H]3O)[C@@H](O)[C@H]2O)c(=O)[nH]1
-- reply 2.28

-- ask # return recorded pIC50 for input O=c1ccn([C@@H]2O[C@H](COP(=O)(O)OP(=O)(O)O[C@H]3O[C@H](CO)[C@@H](O)C[C@H]3O)[C@@H](O)[C@H]2O)c(=O)[nH]1
-- reply 2.62
